# Assay System: MLK3 (Homo sapiens)
# Sequence (Q16584 whole entry, species assumed): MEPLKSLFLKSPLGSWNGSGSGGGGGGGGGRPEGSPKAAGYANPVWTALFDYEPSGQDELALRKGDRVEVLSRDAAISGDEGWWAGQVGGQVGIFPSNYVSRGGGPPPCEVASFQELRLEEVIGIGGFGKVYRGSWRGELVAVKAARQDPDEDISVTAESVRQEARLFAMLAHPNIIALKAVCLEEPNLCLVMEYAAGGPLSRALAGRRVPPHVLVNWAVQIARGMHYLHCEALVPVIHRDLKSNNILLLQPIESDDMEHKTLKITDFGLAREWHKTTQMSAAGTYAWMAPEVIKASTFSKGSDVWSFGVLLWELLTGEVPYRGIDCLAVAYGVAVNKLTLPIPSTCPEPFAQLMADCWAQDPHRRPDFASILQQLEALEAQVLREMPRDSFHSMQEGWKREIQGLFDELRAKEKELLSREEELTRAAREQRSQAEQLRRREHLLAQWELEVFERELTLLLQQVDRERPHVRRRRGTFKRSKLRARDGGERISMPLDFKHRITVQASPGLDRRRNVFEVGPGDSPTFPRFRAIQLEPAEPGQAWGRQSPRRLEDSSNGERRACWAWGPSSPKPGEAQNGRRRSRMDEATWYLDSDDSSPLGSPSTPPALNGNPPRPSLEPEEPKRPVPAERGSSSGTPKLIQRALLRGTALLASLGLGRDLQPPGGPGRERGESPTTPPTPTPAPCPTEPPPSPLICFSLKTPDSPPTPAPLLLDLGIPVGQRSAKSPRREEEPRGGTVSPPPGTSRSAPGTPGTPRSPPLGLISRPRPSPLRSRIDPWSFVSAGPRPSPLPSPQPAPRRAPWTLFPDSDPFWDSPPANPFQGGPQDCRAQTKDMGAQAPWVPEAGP
# Test Name: Kinase profiling MLK3
# Format: biochemical
# Details: 100 micromolar inhibitor concentration; 100 is no change
Assign met to entries whose residual kinase activity, MLK3 meets or exceeds 50; assign not met to the rest.

Illustrative cases are given below, each with its answer.
                           line_notation  answer_label
0       N#Cc1ccc2nc(NC(=O)c3ccccc3)sc2c1           met
1        COc1ccc2sc(NC(=O)c3ccccc3)nc2c1       not met
2                CC(=O)Nc1nc2ccc(F)cc2s1       not met
3        COc1ccc2nc(NC(=O)c3ccccc3)sc2c1       not met
4  O=C(Nc1nc2ccc(C(F)(F)F)cc2s1)c1ccccc1           met

Check the entry O=C(Nc1nc2cc(O)ccc2s1)c1ccncc1 : does residual kinase activity, MLK3 equal or exceed 50?
met

Entry COC(=O)c1cccc(C(=O)Nc2nc3cc(OC)ccc3s2)c1 : is its residual kinase activity, MLK3 no less than 50?
met

Is residual kinase activity, MLK3 at least 50? Consider O=C(Nc1nc2cc(O)ccc2s1)c1ccccc1
not met

###

Would you mind telling me the reported remaining activity at 100 µM of each entry?
# Assay System: RIPK2 (Homo sapiens)
# Sequence (O43353 whole entry, species assumed): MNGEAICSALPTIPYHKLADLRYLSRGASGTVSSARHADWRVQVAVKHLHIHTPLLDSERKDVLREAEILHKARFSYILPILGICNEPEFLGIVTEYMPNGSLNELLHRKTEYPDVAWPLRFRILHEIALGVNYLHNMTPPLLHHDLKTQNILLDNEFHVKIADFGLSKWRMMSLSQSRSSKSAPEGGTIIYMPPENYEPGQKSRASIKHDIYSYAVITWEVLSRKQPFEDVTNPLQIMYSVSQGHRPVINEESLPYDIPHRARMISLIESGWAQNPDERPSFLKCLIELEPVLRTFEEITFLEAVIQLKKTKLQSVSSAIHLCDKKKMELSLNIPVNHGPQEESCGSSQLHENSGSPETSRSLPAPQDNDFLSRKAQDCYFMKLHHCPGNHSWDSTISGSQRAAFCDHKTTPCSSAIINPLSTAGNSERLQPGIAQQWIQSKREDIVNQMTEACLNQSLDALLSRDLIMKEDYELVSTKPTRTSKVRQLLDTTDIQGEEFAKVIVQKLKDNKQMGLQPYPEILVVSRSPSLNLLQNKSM
# Test Name: Kinase profiling RIPK2
# Type: biochemical
# Details: 100 micromolar inhibitor concentration; 100 is no change; read-out: residual kinase activity, RIPK2
Numbers only, in %.

Study these solved cases before continuing.
                                   compound  test_value
0  CC(=O)Nc1nc2ccc(C(F)(F)F)cc2s1 [Compound 01-90]          23
1  COc1ccc2sc(NC(C)=O)nc2c1 [Compound 03-21]          29
2  CC(=O)Nc1nc2cc(C(F)(F)F)ccc2s1 [Compound 03-73]          48
3  CC(=O)Nc1nc2ccc([N+](=O)[O-])cc2s1 [Compound 13-10]          27
4  CC(=O)Nc1nc2ccc(O)cc2s1 [Compound 01-71]          22
5  CC(=O)Nc1nc2cc(F)ccc2s1 [Compound 03-77]          64

So what does the record say about remaining activity at 100 µM for CC(=O)Nc1nc2ccc(C#N)cc2s1 [Compound 01-94] ?
17

###

# Assay System: PAK4 (Homo sapiens, UniProt O96013)
# Sequence (O96013 whole entry, species assumed): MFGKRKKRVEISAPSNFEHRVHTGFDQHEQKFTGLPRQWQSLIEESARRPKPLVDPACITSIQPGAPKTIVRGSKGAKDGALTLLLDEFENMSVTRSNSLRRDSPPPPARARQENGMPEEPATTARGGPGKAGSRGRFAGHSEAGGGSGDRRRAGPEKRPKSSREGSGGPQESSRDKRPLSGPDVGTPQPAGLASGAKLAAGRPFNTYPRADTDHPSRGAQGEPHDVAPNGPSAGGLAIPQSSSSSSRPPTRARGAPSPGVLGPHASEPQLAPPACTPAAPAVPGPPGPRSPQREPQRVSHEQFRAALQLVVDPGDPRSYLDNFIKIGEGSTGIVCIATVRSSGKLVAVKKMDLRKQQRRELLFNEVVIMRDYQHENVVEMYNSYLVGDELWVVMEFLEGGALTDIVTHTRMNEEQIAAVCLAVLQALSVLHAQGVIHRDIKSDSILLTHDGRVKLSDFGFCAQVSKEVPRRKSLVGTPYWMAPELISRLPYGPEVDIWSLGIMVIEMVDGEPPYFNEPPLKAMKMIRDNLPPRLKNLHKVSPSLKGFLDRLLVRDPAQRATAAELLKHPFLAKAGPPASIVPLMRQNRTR
# Test Name: Kinase profiling PAK4
# Format: biochemical
# Details: 100 micromolar inhibitor concentration; 100 is no change
Readout Type: residual kinase activity, PAK4
Numbers only.

Answered cases to consult:
>>> print(df.to_string())
                                   molecule                         assay_system  test_value
0  N#Cc1ccc2nc(NC(=O)c3ccccc3)sc2c1 [Compound 03-106]  PAK4 (Homo sapiens, UniProt O96013)          94
1  O=C(Nc1nc2ccc(F)cc2s1)c1ccccc1 [Compound 03-92]  PAK4 (Homo sapiens, UniProt O96013)         111
2  COc1ccc2nc(NC(=O)c3ccccc3)sc2c1 [Compound 03-98]  PAK4 (Homo sapiens, UniProt O96013)          37
3     CC(=O)Nc1nc2ccccc2s1 [Compound 03-32]  PAK4 (Homo sapiens, UniProt O96013)          75
4  O=C(Nc1nc2ccc(O)cc2s1)c1ccncc1 [Compound 08-42]  PAK4 (Homo sapiens, UniProt O96013)          69
5  COC(=O)c1cccc(C(=O)Nc2nc3cc(OC)ccc3s2)c1 [Compound 03-108]  PAK4 (Homo sapiens, UniProt O96013)         100
6  COc1ccc2sc(NC(=O)c3ccccc3)nc2c1 [Compound 03-95]  PAK4 (Homo sapiens, UniProt O96013)         107
7  O=C(Nc1nc2ccc(O)cc2s1)c1ccccc1 [Compound 03-60]  PAK4 (Homo sapiens, UniProt O96013)          35

--- query ---
I'd like to know its residual kinase activity, PAK4. The molecule in question is O=C(Nc1nc2cc(O)ccc2s1)c1ccncc1 [Compound 03-11]
73
